METHOD_DESCRIPTION: Toxicity liver stage against HepG2, at 10uM
Type: cell-based
Set-up: test concentration 10 uM, cell line HepG2-A16-CD81EGFP
CONDITIONS: human, HepG2-A16-CD81EGFP cells; read-out: INHIBITION
MEASUREMENT_NAME: cytotoxicity at 10 µM (%)
Respond with the bare value in %.

These recorded examples may help you get a feel for the data.
- COMPOUND: "CC(C)c1nc(CN(C)C(=O)CNC(N)=O)cs1"
  cytotoxicity at 10 µM (%): 17.4
- COMPOUND: "O=C(NCc1ccccn1)[C@@]12CCO[C@@H]1CCN(Cc1ccccn1)C2"
  cytotoxicity at 10 µM (%): -112
- COMPOUND: "COc1ccc(CC(=O)Nc2c(C)nc(N3CCCC3)nc2C)cc1"
  cytotoxicity at 10 µM (%): 2.05
- COMPOUND: "Cc1cc(CN2CCN(C(=O)C3(C#N)CCCC3)CC2)on1"
  cytotoxicity at 10 µM (%): -14.9
- COMPOUND: "CNC(=O)CN1CCO[C@H]2CN(C(=O)C3CC3)C[C@H]21"
  cytotoxicity at 10 µM (%): 7.52

API: the following record is the query input.
Task: Recorded cytotoxicity at 10 µM of CN(C)CC1(O)CCN(C(=O)c2cnc(-c3ccccn3)nc2)C1 (stereo unspecified) , please.
Result: 4.82

###

METHOD_DESCRIPTION: Toxicity liver stage against HepG2, at 10uM
Assay type: cell-based
Parameters: test concentration 10 uM, cell line HepG2-A16-CD81EGFP
CONDITIONS: human, HepG2-A16-CD81EGFP cells; read-out: INHIBITION
Below is a list of entries, each paired with its recorded cytotoxicity at 10 µM value.
Respond with the bare value in %.

These recorded examples may help you get a feel for the data.
- COMPOUND: "CN(c1ccc(F)cc1)S(=O)(=O)c1cc2c(c(C(=O)O)c1)OCCO2"
  cytotoxicity at 10 µM [%]: -5.79
- COMPOUND: "Cc1ccc(N2CCCN(C(=O)CCc3nccs3)CC2)nn1"
  cytotoxicity at 10 µM [%]: -7.91
- COMPOUND: "CC1CCN(C(=O)c2ccn(COc3ccc(F)cc3)n2)CC1"
  cytotoxicity at 10 µM [%]: -9.38
- COMPOUND: "CCOCC1CN(Cc2ccc(F)cc2)Cc2nn(CC3CC3)cc21 (configuration not stated)"
  cytotoxicity at 10 µM [%]: 7.43
- COMPOUND: "CS(=O)(=O)N1CCC(n2nnn(-c3ccccc3)c2=O)CC1"
  cytotoxicity at 10 µM [%]: 2.58

Task: Recorded cytotoxicity at 10 µM of CN(C)c1ncc(-c2ccc(F)cc2)c(C2CNCCO2)n1 (configuration not stated) , please.
Result: -5.68

###

METHOD_DESCRIPTION: Toxicity liver stage against HepG2, at 10uM
Type: cell-based
Parameters: test concentration 10 uM, cell line HepG2-A16-CD81EGFP
CONDITIONS: human, HepG2-A16-CD81EGFP cells; read-out: INHIBITION
MEASUREMENT_NAME: cytotoxicity at 10 µM (%)
Respond with the bare value in %.

These recorded examples may help you get a feel for the data.
- COMPOUND: "Cn1cc(N2CCC3(CCN(C(=O)c4cccn4C)C3)C2=O)cn1 (stereo unspecified)"
  U: "%"
  RECORDED_MEASUREMENT: 2.93
- COMPOUND: "c1ccc(CN2CCC(CCNc3ncnc4c3CCNCC4)C2)cc1 (stereo unspecified)"
  U: "%"
  RECORDED_MEASUREMENT: -0.16
- COMPOUND: "O=C(O)C1(Cc2cc(-c3ccc(F)cc3F)no2)CCOCC1"
  U: "%"
  RECORDED_MEASUREMENT: 3.37
- COMPOUND: "Cc1nc(CN2CCCC2c2[nH]ncc2C(=O)N(C)C)cs1 (stereo unspecified)"
  U: "%"
  RECORDED_MEASUREMENT: -0.722
- COMPOUND: "CC(O)c1cccc(Nc2nc(NCCO)c3ccccc3n2)c1 (stereo unspecified)"
  U: "%"
  RECORDED_MEASUREMENT: 18.4

API: the following record is the query input.
Task: Recorded cytotoxicity at 10 µM of CNC(=O)[C@@]12CCO[C@@H]1CCN(S(=O)(=O)c1ccc(C)cc1)C2 , please.
Result: -69.9

###

METHOD_DESCRIPTION: Toxicity liver stage against HepG2, at 10uM
Type: cell-based
Set-up: test concentration 10 uM, cell line HepG2-A16-CD81EGFP
CONDITIONS: human, HepG2-A16-CD81EGFP cells; read-out: INHIBITION
Below is a list of entries, each paired with its recorded cytotoxicity at 10 µM value.
Respond with the bare value in %.

These recorded examples may help you get a feel for the data.
- COMPOUND: "CCn1c(C)nnc1SCCNc1cc(N2CCOCC2)ncn1"
  U: "%"
  cytotoxicity at 10 µM: 0.801
- COMPOUND: "Cc1cn(CC(=O)Nc2cc(C(C)(C)C)nn2C)cn1"
  U: "%"
  cytotoxicity at 10 µM: 0.79

Task: Recorded cytotoxicity at 10 µM of O=C(c1cccs1)N1CCc2nnc(COc3cncnc3)n2CC1 , please.
Result: 8.13

Task: Recorded cytotoxicity at 10 µM of COc1ccc(NC(=O)Cn2nc(C)c(C)cc2=O)cc1OC , please.
Result: -20.4

Task: Recorded cytotoxicity at 10 µM of CCc1nc(C2CCCN2C(=O)c2ccc(=O)n(CC)n2)no1 (stereo unspecified) , please.
Result: 2.72

Task: Recorded cytotoxicity at 10 µM of COCCCN1Cc2cccc(NC(=O)c3cc(F)ccc3F)c2C1 , please.
Result: -1.74

###

METHOD_DESCRIPTION: Toxicity liver stage against HepG2, at 10uM
Format: cell-based
Set-up: test concentration 10 uM, cell line HepG2-A16-CD81EGFP
CONDITIONS: human, HepG2-A16-CD81EGFP cells; read-out: INHIBITION
MEASUREMENT_NAME: cytotoxicity at 10 µM (%)
Respond with the bare value in %.

- COMPOUND: "Cc1cnn(CC2CN(Cc3nnc(C(C)C)o3)CCO2)c1 (stereo not given)"
  cytotoxicity at 10 µM (%): -2.55

Task: Recorded cytotoxicity at 10 µM of c1ccc(CCN2CCN(C3CCOC4(CCOCC4)C3)CC2)nc1 (stereo not given) , please.
Result: 2.1

Task: Recorded cytotoxicity at 10 µM of CCn1ccnc1CN1CCN(c2ncnc3ccsc23)CC1C (stereo not given) , please.
Result: 3.04

Task: Recorded cytotoxicity at 10 µM of COC(=O)c1ccc(C(=O)NCc2ccco2)nc1 , please.
Result: -3.73

###

Below is a list of entries, each paired with its recorded cytotoxicity at 10 µM value.
METHOD_DESCRIPTION: Toxicity liver stage against HepG2, at 10uM
Assay type: cell-based
Design: test concentration 10 uM, cell line HepG2-A16-CD81EGFP
CONDITIONS: human, HepG2-A16-CD81EGFP cells; read-out: INHIBITION
Express the reported value numerically, then name its unit.

These recorded examples may help you get a feel for the data.
- COMPOUND: "Cc1nc(CN2CCCCC2Cn2cccn2)nc2ccccc12 (centres undefined)"
  cytotoxicity at 10 µM: "-41.5%"
- COMPOUND: "Cc1cc(C)c(CNC(=O)NCC(O)COc2ccccc2)c(=O)[nH]1 (centres undefined)"
  cytotoxicity at 10 µM: "-5.75%"
- COMPOUND: "O[C@@H]1Cc2ccccc2[C@@H]1Nc1ncccc1F"
  cytotoxicity at 10 µM: "13.3%"
- COMPOUND: "COc1ccc(Br)cc1CN(C)C(C)c1nc(C(C)C)no1 (centres undefined)"
  cytotoxicity at 10 µM: "4.43%"
- COMPOUND: "Cc1ncsc1C(=O)NCCCN1CCCCCC1=O"
  cytotoxicity at 10 µM: "-3.51%"

Task: Recorded cytotoxicity at 10 µM of CCCNCc1cc2c(C)cc(C)cc2n2c(=O)n(C)nc12 , please.
Result: -3.09%

###

METHOD_DESCRIPTION: Toxicity liver stage against HepG2, at 10uM
Type: cell-based
Set-up: test concentration 10 uM, cell line HepG2-A16-CD81EGFP
CONDITIONS: human, HepG2-A16-CD81EGFP cells; read-out: INHIBITION
MEASUREMENT_NAME: cytotoxicity at 10 µM (%)
Respond with the bare value in %.

These recorded examples may help you get a feel for the data.
- COMPOUND: "CSc1ccc(NCC(=O)NCC(=O)N2CCCC2)cc1F"
  MEASUREMENT_NAME: "cytotoxicity at 10 µM"
  RECORDED_MEASUREMENT: 2.63
- COMPOUND: "Cc1cccc(CN2CC3(CCN(S(=O)(=O)C4CC4)CC3)OCC2=O)n1"
  MEASUREMENT_NAME: "cytotoxicity at 10 µM"
  RECORDED_MEASUREMENT: -3.27

Task: Recorded cytotoxicity at 10 µM of CSCCC(=O)NCc1cc2n(n1)CCN(C(=O)N(C)C)C2 , please.
Result: -5.77

Task: Recorded cytotoxicity at 10 µM of CCCc1n[nH]c(C2CN(C(=O)c3ccc[nH]3)CCO2)n1 (configuration not stated) , please.
Result: -9.29

Task: Recorded cytotoxicity at 10 µM of CCc1nc(CN(C)C(=O)NCc2cccc(NC(C)=O)c2)cs1 , please.
Result: -3.71

Task: Recorded cytotoxicity at 10 µM of COC(=O)c1sccc1S(=O)(=O)NCCc1ccoc1 , please.
Result: 2.6
